METHOD NOTES: NCI Yeast Anticancer Drug Screen. Data for the sgs1 mgt1 strain (AID 161);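 also: 0% = growth of cultures given vehicle only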
EXPERIMENTAL SETUP: S. cerevisiae sgs1 mgt1 strain, at 50.0 µM, hits give high values
Compounds without any hit were thinned out: in the full panel of roughly 79,000, 15% have a hit.
Recorded growth inhibition by entry
Output spec: scalar in %, unitless text.

See these solved cases before continuing.
CN(C)N=Nc1c(Cl)cccc1Cl = -6.6
c1ccc(-c2ccc3ncccc3c2)cc1 = 5.05
CCOC(=O)CC/C(=N/Nc1ccc(Cl)cc1[N+](=O)[O-])C(=O)OCC = -31.9
CCCC(O)C(C)C(O)CC (configuration not stated) = -22.2
CSc1cc(/C=C/c2ccccc2)ccc1[N+](=O)[O-] = 4.95
CC(C)NC(=O)C1C2CCC(CC2)C1C(=O)NC(C)C (configuration not stated) = -4
O=S(CCO)c1ccc(Cl)cc1 (configuration not stated) = -21.2
c1ccc2c(c1)[nH]c1ccncc12 = -1.6

stdin: Note down growth inhibition recorded for O=C(CC(C(=O)c1ccsc1)c1cccs1)c1ccsc1 (configuration not stated)
stdout: 18.6

stdin: Note down growth inhibition recorded for c1ccc(-c2nc3n(n2)CCC(c2ccccc2)S3)cc1 (configuration not stated)
stdout: -15.5

stdin: Note down growth inhibition recorded for `C/C(=N\n1c(-c2ccccc2)nc2ccccc2c1=O)c1ccc(C)cc1`
stdout: -2.7

stdin: Note down growth inhibition recorded for C=C1C(=O)OC2/C=C(\C)C(O)C/C=C(/C)C(OC(=O)/C(C)=C\C)C(O)C12 (configuration not stated)
stdout: 7.2

###

Recorded growth inhibition by entry
METHOD NOTES: NCI Yeast Anticancer Drug Screen. Data for the bub3 strain (AID 167)
EXPERIMENTAL SETUP: S. cerevisiae bub3 mutant strain, at 50.0 µM, hits give high values
This is part of a sample that, as a whole, favours compounds with a hit. Of some 79,000 tested, about 15% had one in any assay.
Output spec: scalar in %, unitless text.

stdin: Note down growth inhibition recorded for `O=C1CCC(=O)N1c1ccc([I+]c2ccc(N3C(=O)CCC3=O)cc2)cc1`
stdout: -0.8

stdin: Note down growth inhibition recorded for `COC1=C(N)C(=O)c2ccc(-c3ccccn3)nc2C1=O`
stdout: 81.8

###

METHOD NOTES: NCI Yeast Anticancer Drug Screen. Data for the cln2 rad14 strain (AID 165);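 also: 0% = growth equal to vehicle treated cultures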
EXPERIMENTAL SETUP: S. cerevisiae cln2 rad14 strain, at 50.0 µM, hits give high values
The panel holds about 79,000 compounds, 15% with a hit somewhere; the sample as a whole holds those more often.
ASSAY READOUT: growth inhibition (%)
Output spec: scalar in %, unitless text.

See these solved cases before continuing.
O=C(O)c1cccc2c1-c1ccc(NC(=O)C(Cl)Cl)cc1C2=O = -5.7
CC(=O)OC1OC(COC(=O)c2ccccc2)C(OC(=O)c2ccccc2)C1OC(=O)c1ccccc1 (centres undefined) = -33.9
Cc1csc[n+]1C/C(=N/O)c1ccc(I)cc1 = 3.65
O=C(O)c1ccccc1C(=O)c1ccccn1 = 10.6
CC(C(=O)O)C(C)C(=O)O (centres undefined) = 6.45

stdin: Note down growth inhibition recorded for `O=C1/C(=C/c2ccc(O)cc2)CCC/C1=C\c1ccc(O)cc1`
stdout: 23.1

stdin: Note down growth inhibition recorded for `CCCCCCOCC(=O)OC`
stdout: 8.35

stdin: Note down growth inhibition recorded for `CC1=C(C(=O)Nc2ccc([N+](=O)[O-])cc2)C(c2cccc([N+](=O)[O-])c2)C(C(=O)Nc2ccc([N+](=O)[O-])cc2)=C(C)N1`
stdout: -17.1

stdin: Note down growth inhibition recorded for `N#C/C(=C\c1cccc(N)c1)c1ccccc1`
stdout: 30.1

stdin: Note down growth inhibition recorded for Cc1ccc2c(c1)NC(C1Nc3cc(C)ccc3O1)O2 (centres undefined)
stdout: -46.5

stdin: Note down growth inhibition recorded for `COc1cc(O)c(Cc2ccccc2O)c(O)c1C(=O)CCc1ccccc1`
stdout: -5.65

stdin: Note down growth inhibition recorded for `CC(=O)Nc1cc(C)c(C)cc1NC(C)=O`
stdout: -21.8

###

Recorded growth inhibition by entry
METHOD NOTES: NCI Yeast Anticancer Drug Screen. Data for the rad50 strain (AID 155);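 also: 0% = growth of vehicle-only cultures of the same strain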
EXPERIMENTAL SETUP: S. cerevisiae rad50 strain growth inhibition; at 50.0 µM; hits give high values
This is part of a sample that, as a whole, favours compounds with a hit. Of some 79,000 tested, about 15% had one in any assay.
Output spec: scalar in %, unitless text.

See these solved cases before continuing.
N=C(N)S/C=C/C(=O)O = -18.8
Nn1nc2ccccc2n1 = -0.15
ClCC#CCCl = 19.4
CCC(O)(c1ccc(OC)cc1)C(O)(CC)c1ccc(OC)cc1 (centres undefined) = 9.2
CN1CCCCC1C(O)CO (centres undefined) = 11.4

stdin: Note down growth inhibition recorded for `CCOC(=O)c1sc(SSc2nc(C)c(C(=O)OCC)s2)nc1C`
stdout: -4.4

stdin: Note down growth inhibition recorded for CC(Oc1ccc(Br)cc1Br)C(=O)O (centres undefined)
stdout: 4.1

stdin: Note down growth inhibition recorded for COc1cc(C(C)C)c(Oc2c(C)c(OC)cc(C(C)C)c2O)cc1C (tested in a mixture with another compound)
stdout: -7.5

stdin: Note down growth inhibition recorded for `CCN(CC)CCN(C(=S)Nc1ccccc1)c1ccccc1`
stdout: 5

stdin: Note down growth inhibition recorded for `CCOC(=O)CC(=O)c1ccc(Cl)cc1`
stdout: 15.1

stdin: Note down growth inhibition recorded for `O=C1CCCCCCCC(=O)Nc2ccc3nc4ccccc4c(c3c2)SCCCCCCCCCSc2c3ccccc3nc3ccc(cc23)N1`
stdout: 27.7

###

METHOD NOTES: NCI Yeast Anticancer Drug Screen. Data for the mlh1 rad18 strain (AID 175)
EXPERIMENTAL SETUP: S. cerevisiae mlh1 rad18 strain growth inhibition; at 50.0 µM; hits give high values
Protocol: Growth inhibition of yeast strains with defined genetic alterations is measured as a screen for potential anti-cancer activity. Selected strains with alterations in DNA damage repair or cell cycle control were exposed to compounds and growth inhibition was measured relative to vehicle treated controls. The strain used in this assay is mlh1 rad18
Compounds without any hit were thinned out: in the full panel of roughly 79,000, 15% have a hit.
Recorded growth inhibition by entry
Output spec: scalar in %, unitless text.

Cc1cccc2nc(-c3ccccn3)n(CCc3ccncc3)c12 = 98.7
Cc1[nH]c(=O)[nH]c(=O)c1C(=O)N(CCO)Cc1ccccc1 = -15.9

stdin: Note down growth inhibition recorded for `CCN(CC)C(=N)N`
stdout: -14.4

stdin: Note down growth inhibition recorded for CCCCC(C)C(=O)CC(SCC)c1ccc(Cl)c(Cl)c1 (stereo unspecified)
stdout: -0.95

stdin: Note down growth inhibition recorded for `Cc1ccc(C(=O)/C=C(\C(=O)c2ccccc2)c2ccccc2)cc1C`
stdout: 9.65

stdin: Note down growth inhibition recorded for `Cc1cc(NC(=O)C(=O)CC(=O)c2cccnc2)no1`
stdout: -4.15

###

METHOD NOTES: NCI Yeast Anticancer Drug Screen. Data for the sgs1 mgt1 strain (AID 161);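 also: 0% = growth of cultures given vehicle only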
EXPERIMENTAL SETUP: S. cerevisiae sgs1 mgt1 strain, at 50.0 µM, hits give high values
The panel holds about 79,000 compounds, 15% with a hit somewhere; the sample as a whole holds those more often.
ASSAY READOUT: growth inhibition (%)
Output spec: scalar in %, unitless text.

See these solved cases before continuing.
CC(C)[O-].CC(C)[O-].O=c1cccccc1[O-].O=c1cccccc1[O-].[Ti+4] = 14.2
Cc1nc2ccccn2c1N=Nc1ccc(C(=O)NN)cc1 = 0.1
C=C1C(=O)O[C@@H]2C3=C(C)C(=O)C=C[C@]3(C)CC[C@@H]12 = 8.55
CC(C)(C)c1ccc(O)c(Sc2cc(C(C)(C)C)ccc2O)c1 = 7.95
CCCCC(C(=O)O)C(=O)O = -21.8

stdin: Note down growth inhibition recorded for COC(=O)C1CCCC2(C1)OCCO2 (configuration not stated)
stdout: -23.1

stdin: Note down growth inhibition recorded for `c1ccc(C2=NN3CN(N2)c2ccccc2OCCCOc2ccccc23)cc1`
stdout: -5.55

stdin: Note down growth inhibition recorded for `Clc1cc(Cl)nc(Cl)n1`
stdout: -4.95

stdin: Note down growth inhibition recorded for CC(=O)NC(C)(CO)C(=O)O (configuration not stated)
stdout: 19.4

###

Recorded growth inhibition by entry
METHOD NOTES: NCI Yeast Anticancer Drug Screen. Data for the sgs1 mgt1 strain (AID 161);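 also: 0% = growth of cultures given vehicle only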
EXPERIMENTAL SETUP: S. cerevisiae sgs1 mgt1 strain, at 50.0 µM, hits give high values
Procedure: Growth inhibition of yeast strains with defined genetic alterations is measured as a screen for potential anti-cancer activity. Selected strains with alterations in DNA damage repair or cell cycle control were exposed to compounds and growth inhibition was measured relative to vehicle treated controls. The strain used in this assay is sgs1 mgt1
The panel holds about 79,000 compounds, 15% with a hit somewhere; the sample as a whole holds those more often.
Output spec: scalar in %, unitless text.

See these solved cases before continuing.
COC(=O)c1ccc(C(=O)OC)c(O)c1O = 8.85
CC(=O)c1c(O)c(Nc2ccccc2)cc2nc3ccccc3nc12 = -0.4
N#Cc1nc(C(O)c2ccccc2)oc1N (configuration not stated) = -7.05

stdin: Note down growth inhibition recorded for `CNS(=O)(=O)c1c(C)cccc1CC(=O)c1ccccc1`
stdout: 12.2

stdin: Note down growth inhibition recorded for `Nc1nc(C2CCCCC2)cc(=O)[nH]1`
stdout: -4.3
